Assay: activity coefficient (dimensionless); of the first substance listed, at infinite dilution; xn = mol fraction of the nth substance listed
Details: 348.15 K; 101 kPa; Liquid; Chromatography; x1 = 0
readout-type: activity coefficient

compound: CCCCCCCCC [nonane] + CC[S+](CC)CC.O=S(=O)([N-]S(=O)(=O)C(F)(F)F)C(F)(F)F
activity coefficient: 50.5

compound: CCCCCCC [heptane] + CC[S+](CC)CC.O=S(=O)([N-]S(=O)(=O)C(F)(F)F)C(F)(F)F
activity coefficient: 26

compound: C=CCCCC [hex-1-ene] + CC[S+](CC)CC.O=S(=O)([N-]S(=O)(=O)C(F)(F)F)C(F)(F)F
activity coefficient: 9.69

compound: C1CCCCCC1 [cycloheptane] + CC[S+](CC)CC.O=S(=O)([N-]S(=O)(=O)C(F)(F)F)C(F)(F)F
activity coefficient: 14.1

Quick one: activity coefficient of C=CCCCCC [1-heptene] + CC[S+](CC)CC.O=S(=O)([N-]S(=O)(=O)C(F)(F)F)C(F)(F)F ?
13.7

Quick one: activity coefficient of c1ccsc1 [thiophene] + CC[S+](CC)CC.O=S(=O)([N-]S(=O)(=O)C(F)(F)F)C(F)(F)F ?
0.965

Quick one: activity coefficient of C#CCCCCC [1-heptyne] + CC[S+](CC)CC.O=S(=O)([N-]S(=O)(=O)C(F)(F)F)C(F)(F)F ?
5.04

Quick one: activity coefficient of CCc1ccccc1 [ethylbenzene] + CC[S+](CC)CC.O=S(=O)([N-]S(=O)(=O)C(F)(F)F)C(F)(F)F ?
2.45

Quick one: activity coefficient of c1ccccc1 [benzene] + CC[S+](CC)CC.O=S(=O)([N-]S(=O)(=O)C(F)(F)F)C(F)(F)F ?
1.13

Quick one: activity coefficient of COC(C)(C)C [2-methoxy-2-methylpropane] + CC[S+](CC)CC.O=S(=O)([N-]S(=O)(=O)C(F)(F)F)C(F)(F)F ?
3.02

Quick one: activity coefficient of CCCO [propan-1-ol] + CC[S+](CC)CC.O=S(=O)([N-]S(=O)(=O)C(F)(F)F)C(F)(F)F ?
1.7

Quick one: activity coefficient of O [water] + CC[S+](CC)CC.O=S(=O)([N-]S(=O)(=O)C(F)(F)F)C(F)(F)F ?
2.33

Quick one: activity coefficient of CO [methanol] + CC[S+](CC)CC.O=S(=O)([N-]S(=O)(=O)C(F)(F)F)C(F)(F)F ?
1.07

Quick one: activity coefficient of Cc1ccccc1 [toluene] + CC[S+](CC)CC.O=S(=O)([N-]S(=O)(=O)C(F)(F)F)C(F)(F)F ?
1.63

Quick one: activity coefficient of Cc1cccc(C)c1 [1,3-dimethylbenzene] + CC[S+](CC)CC.O=S(=O)([N-]S(=O)(=O)C(F)(F)F)C(F)(F)F ?
2.36

---

Experiment: activity coefficient (dimensionless); of the first substance listed, at infinite dilution; xn = mol fraction of the nth substance listed
Conditions: 328.15 K; 101 kPa; Liquid; Chromatography; x1 = 0
readout-type: activity coefficient
In your answer, state the number alone without any accompanying words.

Quick one: activity coefficient of C#CCCCCC [1-heptyne] + CC[S+](CC)CC.O=S(=O)([N-]S(=O)(=O)C(F)(F)F)C(F)(F)F ?
5.14

Quick one: activity coefficient of CCCO [propan-1-ol] + CC[S+](CC)CC.O=S(=O)([N-]S(=O)(=O)C(F)(F)F)C(F)(F)F ?
2.04

Quick one: activity coefficient of c1ccccc1 [benzene] + CC[S+](CC)CC.O=S(=O)([N-]S(=O)(=O)C(F)(F)F)C(F)(F)F ?
1.12

---

Experiment: activity coefficient (dimensionless); of the first substance listed, at infinite dilution; xn = mol fraction of the nth substance listed
Conditions: 368.15 K; 101 kPa; Liquid; Chromatography; x1 = 0
readout-type: activity coefficient
In your answer, state the number alone without any accompanying words.

Quick one: activity coefficient of CCCCCCCCC [nonane] + CC[S+](CC)CC.O=S(=O)([N-]S(=O)(=O)C(F)(F)F)C(F)(F)F ?
42.4

Quick one: activity coefficient of C#CCCCC [1-hexyne] + CC[S+](CC)CC.O=S(=O)([N-]S(=O)(=O)C(F)(F)F)C(F)(F)F ?
3.53

Quick one: activity coefficient of c1ccsc1 [thiophene] + CC[S+](CC)CC.O=S(=O)([N-]S(=O)(=O)C(F)(F)F)C(F)(F)F ?
0.977

---

Test: activity coefficient (dimensionless); of the first substance listed, at infinite dilution; xn = mol fraction of the nth substance listed
Settings: 298.15 K; 101 kPa; Liquid; Chromatography; x1 = 0
List of activity coefficient values.
In your answer, state the number alone without any accompanying words.

Examples from the recorded data:
compound: Cc1ccccc1 [toluene] + CC[S+](CC)CC.O=S(=O)([N-]S(=O)(=O)C(F)(F)F)C(F)(F)F
readout-type: activity coefficient
measurement: 1.54
//
compound: C1CCCCCCC1 [cyclooctane] + CC[S+](CC)CC.O=S(=O)([N-]S(=O)(=O)C(F)(F)F)C(F)(F)F
readout-type: activity coefficient
measurement: 30.3
//
compound: COC(C)(C)C [2-methoxy-2-methylpropane] + CC[S+](CC)CC.O=S(=O)([N-]S(=O)(=O)C(F)(F)F)C(F)(F)F
readout-type: activity coefficient
measurement: 2.92

// moving on: another record for activity coefficient
Quick one: activity coefficient of CO [methanol] + CC[S+](CC)CC.O=S(=O)([N-]S(=O)(=O)C(F)(F)F)C(F)(F)F ?
1.62

---

Test: activity coefficient (dimensionless); of the first substance listed, at infinite dilution; xn = mol fraction of the nth substance listed
Settings: 308.15 K; 101 kPa; Liquid; Chromatography; x1 = 0
readout-type: activity coefficient

Examples from the recorded data:
compound: C#CCCCCC [1-heptyne] + CC[S+](CC)CC.O=S(=O)([N-]S(=O)(=O)C(F)(F)F)C(F)(F)F
activity coefficient: 5.28

compound: C=CCCCCC [1-heptene] + CC[S+](CC)CC.O=S(=O)([N-]S(=O)(=O)C(F)(F)F)C(F)(F)F
activity coefficient: 17.2

compound: CCCCO [butan-1-ol] + CC[S+](CC)CC.O=S(=O)([N-]S(=O)(=O)C(F)(F)F)C(F)(F)F
activity coefficient: 3.32

Quick one: activity coefficient of c1ccsc1 [thiophene] + CC[S+](CC)CC.O=S(=O)([N-]S(=O)(=O)C(F)(F)F)C(F)(F)F ?
0.935

Quick one: activity coefficient of COC(C)(C)C [2-methoxy-2-methylpropane] + CC[S+](CC)CC.O=S(=O)([N-]S(=O)(=O)C(F)(F)F)C(F)(F)F ?
2.94

Quick one: activity coefficient of CCc1ccccc1 [ethylbenzene] + CC[S+](CC)CC.O=S(=O)([N-]S(=O)(=O)C(F)(F)F)C(F)(F)F ?
2.43

---

Test: activity coefficient (dimensionless); of the first substance listed, at infinite dilution; xn = mol fraction of the nth substance listed
Settings: 348.15 K; 101 kPa; Liquid; Chromatography; x1 = 0
readout-type: activity coefficient

Examples from the recorded data:
molecule: CCCCCCCCCC [decane] + CC[S+](CC)CC.O=S(=O)([N-]S(=O)(=O)C(F)(F)F)C(F)(F)F
measurement: 72.5
--
molecule: CCCCO [butan-1-ol] + CC[S+](CC)CC.O=S(=O)([N-]S(=O)(=O)C(F)(F)F)C(F)(F)F
measurement: 2.2
--
molecule: CCO [ethanol] + CC[S+](CC)CC.O=S(=O)([N-]S(=O)(=O)C(F)(F)F)C(F)(F)F
measurement: 1.36

Quick one: activity coefficient of C#CCCCCCC [1-octyne] + CC[S+](CC)CC.O=S(=O)([N-]S(=O)(=O)C(F)(F)F)C(F)(F)F ?
7.06

---

Assay: activity coefficient (dimensionless); of the first substance listed, at infinite dilution; xn = mol fraction of the nth substance listed
Settings: 368.15 K; 101 kPa; Liquid; Chromatography; x1 = 0
Criterion: activity coefficient strictly under 2. Met: Y. Not met: N.

compound: CCCCO [butan-1-ol] + CC[S+](CC)CC.O=S(=O)([N-]S(=O)(=O)C(F)(F)F)C(F)(F)F
category-label: Y

compound: C#CCCCCCC [1-octyne] + CC[S+](CC)CC.O=S(=O)([N-]S(=O)(=O)C(F)(F)F)C(F)(F)F
category-label: N

Please determine if C1CCOC1 [tetrahydrofuran] + CC[S+](CC)CC.O=S(=O)([N-]S(=O)(=O)C(F)(F)F)C(F)(F)F is below 2 in terms of activity coefficient.
Y

Please determine if C#CCCCCC [1-heptyne] + CC[S+](CC)CC.O=S(=O)([N-]S(=O)(=O)C(F)(F)F)C(F)(F)F is below 2 in terms of activity coefficient.
N

Values from the NIST ThermoML archive (doi:10.1016/j.jct.2008.12.005)
